Measured values drawn from patent US20130217723A1 for this set.

Test: Phase I pharmacokinetic study of oral tenatoprazole, single dose and daily dose for 7 days
Type: in vivo, human (Caucasian individuals)
Conditions: human, plasma, oral, after administration for seven days, depending on the dose (10-80 mg); read-out: mean elimination half-lives
property.measured: half-life

> print(dat)
                                   compound  property.measured      result
1  COc1ccc2[nH]c([S+]([O-])Cc3ncc(C)c(OC)c3C)nc2n1 (stereo not shown) [tenatoprazole]          half-life  5 to 9.5 h
